Reference source: patent US20260355196A1

# reported pIC50; entries follow
Assayed Target: PIP4K2C (Homo sapiens, UniProt Q8TBX8)
Sequence (Q8TBX8 whole entry): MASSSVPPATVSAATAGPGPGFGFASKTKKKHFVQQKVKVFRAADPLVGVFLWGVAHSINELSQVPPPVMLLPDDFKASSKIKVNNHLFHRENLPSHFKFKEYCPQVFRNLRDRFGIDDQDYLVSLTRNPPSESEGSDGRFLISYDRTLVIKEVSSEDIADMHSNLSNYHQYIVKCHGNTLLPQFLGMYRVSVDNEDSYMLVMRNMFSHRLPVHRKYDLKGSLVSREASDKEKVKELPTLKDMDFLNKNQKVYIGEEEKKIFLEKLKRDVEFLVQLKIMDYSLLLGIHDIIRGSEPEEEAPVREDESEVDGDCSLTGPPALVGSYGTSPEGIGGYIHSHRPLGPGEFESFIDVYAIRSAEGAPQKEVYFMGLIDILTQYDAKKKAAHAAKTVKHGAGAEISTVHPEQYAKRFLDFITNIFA
Method: Enzyme Binding Assay (KINOMEscan): active site-directed competition binding to an immobilized ligand
Test Settings: 11-point dose response, duplicate, top concentration 5 micromolar; read-out: Pip4k2c Kd: IC50
Experimental: Example B-1: Enzyme Binding Assays (KINOMEscan) PIP4K2C binding constants disclosed herein were determined using the proprietary Human PIP4K2C binding assay (Catalog number 87-0007-1094, Eurofins DiscoverX, San Diego, CA). This assay measures active site-directed competition binding to an immobilized ligand (see https://doi.org/10.1038/nbt1068, herein incorporated by reference in its entirety). […]
pIC50: −log10 of the molar value.

Known results for compounds:
CNC(=O)[C@H]1CC[C@@H](Nc2ncc(Cl)c(-c3cnn(-c4ccc(=O)[nH]c4)c3)n2)CC1 : 6.00 to 6.30
NC(=O)[C@H]1CC[C@H](Nc2ncc(F)c(-c3cccc(C4CC4)c3)n2)CC1 : > 6.30
CNC(=O)[C@H]1CC[C@@H](Nc2ncc(Cl)c(-c3cnn(-c4cc[nH]c(=O)c4)c3)n2)CC1 : 5.30 to 6.00

Value of pIC50 reported for the compound CC(=O)N[C@H]1CC[C@H](Nc2ncc(F)c(N3CCOCC3)n2)CC1 is 5.30 to 6.00

Value of pIC50 reported for the compound CC(=O)N1CCC(Nc2ncc(Cl)c(C3CCN(C(=O)c4ccc(F)cc4)C3)n2)CC1 (centres unmarked) is 6.00 to 6.30
